- Conditions Used: in isopropanol, 315.15 K

Mol: Cc1c(N)c(=O)n(-c2ccccc2)n1C
solubility (mole fraction): 0.32

----------
- Conditions Used: in sec-butanol, 321.05 K
Property Label: solubility (mole fraction)

Mol: Cc1c(N)c(=O)n(-c2ccccc2)n1C
Property Label: solubility (mole fraction)
Reported Result: 0.27

----------
- Conditions Used: in ethanol, 327.15 K

Mol: Cc1c(N)c(=O)n(-c2ccccc2)n1C
solubility (mole fraction): 0.48

----------
- Conditions Used: in ethyl acetate, 299.05 K

Mol: Cc1c(N)c(=O)n(-c2ccccc2)n1C
solubility (mole fraction): 0.08

----------
- Conditions Used: in n-butanol, 311.05 K

Mol: Cc1c(N)c(=O)n(-c2ccccc2)n1C
solubility (mole fraction): 0.21

----------
- Conditions Used: in acetone, 327.15 K
Property Label: solubility (mole fraction)

Mol: Cc1c(N)c(=O)n(-c2ccccc2)n1C
Property Label: solubility (mole fraction)
Reported Result: 0.55

----------
- Conditions Used: in ethyl acetate, 327.15 K
Property Label: solubility (mole fraction)

Mol: Cc1c(N)c(=O)n(-c2ccccc2)n1C
Property Label: solubility (mole fraction)
Reported Result: 0.25

----------
- Conditions Used: in water, 338.35 K

Mol: Cc1c(N)c(=O)n(-c2ccccc2)n1C
solubility (mole fraction): 0.44

----------
- Conditions Used: in ethanol, 303.15 K

Mol: Cc1c(N)c(=O)n(-c2ccccc2)n1C
solubility (mole fraction): 0.25

----------
- Conditions Used: in methanol, 307.25 K
Property Label: solubility (mole fraction)

Mol: Cc1c(N)c(=O)n(-c2ccccc2)n1C
Reported Result: 0.28

----------
- Conditions Used: in n-propanol, 299.05 K
Property Label: solubility (mole fraction)

Mol: Cc1c(N)c(=O)n(-c2ccccc2)n1C
Reported Result: 0.21

----------
- Conditions Used: in isopropanol, 303.15 K

Mol: Cc1c(N)c(=O)n(-c2ccccc2)n1C
solubility (mole fraction): 0.22

----------
- Conditions Used: in n-propanol, 315.15 K
Property Label: solubility (mole fraction)

Mol: Cc1c(N)c(=O)n(-c2ccccc2)n1C
Property Label: solubility (mole fraction)
Reported Result: 0.35

----------
- Conditions Used: in n-propanol, 303.15 K
Property Label: solubility (mole fraction)

Mol: Cc1c(N)c(=O)n(-c2ccccc2)n1C
Reported Result: 0.24

----------
- Conditions Used: in ethanol, 321.05 K

Mol: Cc1c(N)c(=O)n(-c2ccccc2)n1C
solubility (mole fraction): 0.41

----------
- Conditions Used: in n-butanol, 321.05 K

Mol: Cc1c(N)c(=O)n(-c2ccccc2)n1C
solubility (mole fraction): 0.29

----------
- Conditions Used: in n-butanol, 307.25 K
Property Label: solubility (mole fraction)

Mol: Cc1c(N)c(=O)n(-c2ccccc2)n1C
Reported Result: 0.19

----------
- Conditions Used: in n-butanol, 299.05 K
Property Label: solubility (mole fraction)

Mol: Cc1c(N)c(=O)n(-c2ccccc2)n1C
Property Label: solubility (mole fraction)
Reported Result: 0.15

----------
- Conditions Used: in isopropanol, 321.05 K
Property Label: solubility (mole fraction)

Mol: Cc1c(N)c(=O)n(-c2ccccc2)n1C
Reported Result: 0.38

----------
- Conditions Used: in sec-butanol, 311.05 K

Mol: Cc1c(N)c(=O)n(-c2ccccc2)n1C
solubility (mole fraction): 0.2

----------
- Conditions Used: in acetone, 311.05 K

Mol: Cc1c(N)c(=O)n(-c2ccccc2)n1C
solubility (mole fraction): 0.44

----------
- Conditions Used: in sec-butanol, 303.15 K
Property Label: solubility (mole fraction)

Mol: Cc1c(N)c(=O)n(-c2ccccc2)n1C
Property Label: solubility (mole fraction)
Reported Result: 0.16

----------
- Conditions Used: in ethanol, 307.25 K
Property Label: solubility (mole fraction)

Mol: Cc1c(N)c(=O)n(-c2ccccc2)n1C
Property Label: solubility (mole fraction)
Reported Result: 0.28

----------
- Conditions Used: in isopropanol, 338.35 K

Mol: Cc1c(N)c(=O)n(-c2ccccc2)n1C
solubility (mole fraction): 0.57
